Test system: UACC-257
Assay: cells
Type: functional
Details: Homo sapiens, time 48 hrs
Description: Growth inhibition of human UACC-257 cells incubated for 48 hrs by sulforhodamine B assay
measured_property: GI50 (nM)
Give the value in nM but do not write nM after it.

Given CN1CCN(CCCOc2cccc3nc(Nc4ccc(F)c(F)c4)ccc23)CC1 , report its GI50 on UACC-257.
660

Write down the reported GI50 (system: UACC-257) of Clc1cc(Cl)cc(Nc2ccc3c(OCCCN4CCOCC4)cccc3n2)c1
2050

Report GI50 on UACC-257 for this entry: CC(C)c1ccc(Nc2ccc3c(OCCCN4CCN(C)CC4)cccc3n2)cc1
5650

---

System: LOX IMVI
Assay: cells
Format: functional
Details: Homo sapiens, time 48 hrs
Description: Growth inhibition of human LOX IMVI cells incubated for 48 hrs by sulforhodamine B assay
I'd appreciate it if you could supply GI50 values for the items below.
Expressed in nM, but write only the number.

Specify measured GI50 for Fc1cc(Nc2ccc3c(OCCCN4CCOCC4)cccc3n2)ccc1Cl .
1710

Identify measured GI50 corresponding to CN1CCN(CCCOc2cccc3nc(Nc4ccc(Cl)c(F)c4)ccc23)CC1
1640

Return the recorded GI50 value; entry: CN1CCN(CCCOc2cccc3nc(Nc4cc(Cl)cc(Cl)c4)ccc23)CC1
1580

Specify reported GI50 for the compound shown: CN1CCN(CCCOc2cccc3nc(Nc4ccc(Cl)c(C(F)(F)F)c4)ccc23)CC1
1560

For the compound CC(C)c1ccc(Nc2ccc3c(OCCCN4CCN(C)CC4)cccc3n2)cc1 , give its reported GI50.
1860

Determine its reported GI50: FC(F)(F)c1cc(Nc2ccc3c(OCCCN4CCOCC4)cccc3n2)ccc1Cl
1730

Identify the reported GI50 for the following entry. CN1CCN(CCCOc2cccc3nc(Nc4ccc(F)c(F)c4)ccc23)CC1
1030

Provide measured GI50 value, entry: CN1CCN(CCCOc2cccc3nc(Nc4cccc(Cl)c4)ccc23)CC1
1680

Give the measured GI50 for Clc1cc(Cl)cc(Nc2ccc3c(OCCCN4CCOCC4)cccc3n2)c1
1720

Hello, the source for this data is ChEMBL document CHEMBL4715724, in case you need it.
